// provenance: ChEMBL document CHEMBL4699592

Test system: Mycobacterium tuberculosis
Assay: Antibacterial activity against Mycobacterium tuberculosis H37Rv at 0.78 to 100 uM after 5 days by resazurin dye based fluorescence assay
Type: functional, organism-based
Settings: dose microM 0.78-100, time 5.0 day
Activity calls are given as the source filed them. The rule behind the calls is not given here.
Please state which outcome applies, choosing from active, inactive

Example cases with answers are listed next.
Test Smiles: Fc1ccc2[nH]cc(-c3cnc(-c4c[nH]c5ccc(F)cc45)cn3)c2c1
Tgt: Mycobacterium tuberculosis
Classification: inactive

Test Smiles: COc1ccc2[nH]cc(-c3cnc(-c4c[nH]c5ccc(OC)cc45)cn3)c2c1
Tgt: Mycobacterium tuberculosis
Classification: inactive

Test Smiles: COc1ccc2[nH]cc(-c3cnc(-c4c[nH]c5ccc(OC)cc45)nc3)c2c1
Tgt: Mycobacterium tuberculosis
Classification: inactive

Test Smiles: Brc1ccc2[nH]cc(-c3cnc(-c4c[nH]c5ccc(Br)cc45)cn3)c2c1
Tgt: Mycobacterium tuberculosis
Classification: inactive

Test Smiles: Clc1ccc2[nH]cc(-c3ccnc(-c4c[nH]c5ccc(Cl)cc45)n3)c2c1
Tgt: Mycobacterium tuberculosis
Classification: active

Test Smiles: Brc1ccc2c(-c3cnc(-c4c[nH]c5cc(Br)ccc45)cn3)c[nH]c2c1
Tgt: Mycobacterium tuberculosis
Classification: inactive

Test Smiles: Fc1ccc2[nH]cc(-c3cnc(-c4c[nH]c5ccc(F)cc45)nc3)c2c1
Tgt: Mycobacterium tuberculosis
Classification: inactive

Test Smiles: c1ccc2c(-c3cnc(-c4c[nH]c5ccccc45)cn3)c[nH]c2c1
Tgt: Mycobacterium tuberculosis
Classification: inactive

Test Smiles: c1ccc2c(-c3ccc(-c4c[nH]c5ccccc45)nn3)c[nH]c2c1
Tgt: Mycobacterium tuberculosis
Classification: inactive

Test Smiles: Oc1ccc2[nH]cc(-c3cnc(-c4c[nH]c5ccc(O)cc45)cn3)c2c1
Tgt: Mycobacterium tuberculosis
Classification: inactive

input: // param item: `Clc1ccc2[nH]cc(-c3cnc(-c4c[nH]c5ccc(Cl)cc45)cn3)c2c1` ; yields the recorded call
output: inactive

input: What outcome does the record of this test show for `Clc1ccc2[nH]cc(-c3ccc(-c4c[nH]c5ccc(Cl)cc45)nn3)c2c1` ?
output: inactive

input: Hello, I am checking results. What call was entered for `c1ccc2c(-c3cnc(-c4c[nH]c5ccccc45)nc3)c[nH]c2c1` ?
output: inactive

input: Hello, I am checking results. What call was entered for `Oc1ccc2[nH]cc(-c3cnc(-c4c[nH]c5ccc(O)cc45)nc3)c2c1` ?
output: inactive

input: For `Brc1cc2[nH]cc(-c3cnc(-c4c[nH]c5cc(Br)c(Br)cc45)cn3)c2cc1Br` , which call appears in the assay record?
output: inactive

input: Tell me the recorded outcome of this test for `c1cc(-c2c[nH]c3ncccc23)nc(-c2c[nH]c3ncccc23)c1` .
output: inactive

###

# selectivity ratio annotations
Assay: Selectivity index, ratio of IC50 for cytotoxicity against human THP-1 cells to MIC90 for antibacterial activity against […] Staphylococcus aureus ATCC 700699
Format: toxicity, cell-based
Settings: read-out: Selectivity Index
Note: the reply should be a number with no unit written.

input: State the recorded selectivity ratio for this entry: `Clc1ccc2[nH]cc(-c3ccnc(-c4c[nH]c5ccc(Cl)cc45)n3)c2c1`
output: 32

input: Query (compound): `Clc1ccc2[nH]cc(-c3cnc(-c4c[nH]c5ccc(Cl)cc45)nc3)c2c1` ; field requested: selectivity ratio
output: 32

input: Name the recorded selectivity ratio for `Clc1ccc2[nH]cc(-c3cccc(-c4c[nH]c5ccc(Cl)cc45)n3)c2c1` .
output: 32
